Test: chemical genetic growth profiling, strain panel (AID 1159580);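 note: tested at 20 µM; growth read once vehicle control cultures reached saturation at 30 °C; 1 = growth at the plate median or of vehicle wells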
Conditions: S. cerevisiae deletion strains, growth OD, locus YML120C, strain ndi1, stronger effect = lower value
In all, about 5,500 compounds went through this assay and about 2,000 (36%) were called active. Roughly 18% stayed inconclusive and do not appear here. This is one part of the list. Where a SMILES comes first, the peptide text is derived from it.
ENDPOINT: normalized growth

COMPOUND	READOUT VALUE
NCCCCC(=O)O	1.01 (inactive)
O=C(O)C(O)C(O)C(=O)O (centres undefined)	0.998 (inactive)
Clc1ccc(COC(Cn2ccnc2)c2ccc(Cl)cc2Cl)c(Cl)c1 (centres undefined)	0.0587 (active)
CC12CCC3C(=CCc4cc(O)ccc43)C1CCC2=O (centres undefined)	0.971 (inactive)
C[C@]12C=CC(=O)C=C1CCC1C2[C@@H](O)C[C@@]2(C)C1CC[C@]2(O)C(=O)CO (some centres undefined)	0.984 (inactive)
Cc1cc(/C=C/c2ccc3cc(N(C)C)ccc3[n+]2C)c(C)n1-c1ccccc1	0.93 (inactive)
CCC(C)C(=O)c1c(O)c(C)c2oc3c(C)c(O)c(C(=O)C(C)CC)c(O)c3c2c1O (centres undefined)	0.989 (inactive)
C[C@]12CCC3c4ccc(O)cc4CCC3C1CCC2=O (some centres undefined)	1.03 (inactive)
CCCn1c(=O)c2[nH]c(C3CCCC3)nc2n(CCC)c1=O	0.997 (inactive)
Clc1ccc(CO/N=C(/Cn2ccnc2)c2ccc(Cl)cc2Cl)c(Cl)c1	0.0632 (active)
NCCCCCC(=O)O	1 (inactive)
COC(=O)/C(C)=C\CC12OC(C)(C)C3CC(C=C4C(=O)c5c(OC)c6c(c(CC=C(C)C)c5OC431)OC(C)(CCC=C(C)C)C=C6)C2=O (centres undefined)	1.01 (inactive)
CC(=O)OC/C=C(\C)CC/C=C(\C)CC/C=C(\C)CC/C=C(\C)CC/C=C(\C)CC/C=C(\C)CC/C=C(\C)CC/C=C(\C)CCC=C(C)C	0.977 (inactive)
CC1(C)N([O-])[N+](=O)C1(C)Br (centres undefined)	0.984 (inactive)
N[C@@H](C(=O)O)[C@@H](O)[C@H](O)[C@H](O)CO	1.03 (inactive)
NC(N)=NCCCCN=C(N)N	0.998 (inactive)
COc1ccc2c(c1)OCC(Cc1ccc(OC)c(O)c1)C2=O (centres undefined)	0.938 (inactive)
CC12CCCCC1(Br)[N+](=O)N2[O-] (centres undefined)	1 (inactive)
CC[C@@H]1OC(=O)C[C@@H](O)[C@H](C)[C@@H](O[C@@H]2O[C@H](C)[C@@H](O)[C@H](N(C)C)[C@H]2O)[C@@H](CCN2C[C@H](C)C[C@H](C)C2)C[C@@H](C)C(=O)/C=C/C(C)=C\[C@@H]1CO[C@@H]1O[C@H](C)[C@@H](O)[C@@H](OC)[C@H]1OC	1.01 (inactive)
COP(=S)(OC)Oc1ccc([N+](=O)[O-])cc1	1 (inactive)
CC1CCC(NC(=O)N(CCCl)N=O)CC1 (centres undefined)	0.128 (active)
CN(C)CCC(c1ccccc1)c1ccccn1 (centres undefined)	1.01 (inactive)
COc1ccc2c(c1)OCC(Cc1ccc(OC)c(OC)c1)C2=O (centres undefined)	0.965 (inactive)
COC[C@]12CN(C=O)C3[C@@H]4[C@H](OC)C1[C@]3(C1CC3(O)C(OC)C(O)C4(OC(C)=O)C1C3OC(=O)c1ccccc1)[C@@H](OC)C[C@H]2O (some centres undefined)	1.01 (inactive)
CC(=O)O[C@]1(C)CC[C@@]23CC1C(C)(C)[C@@H]2CC[C@H]3C	0.976 (inactive)
NCCCNCCSP(=O)(O)O	0.964 (inactive)
CC(=O)Oc1c2c(c3c(c1CC=C(C)C)O[C@]14C(=C[C@@H]5CC1C(C)(C)OC4(C/C=C(\C)C(=O)O)C5=O)C3=O)OC(C)(CCC=C(C)C)C=C2 (some centres undefined)	0.985 (inactive)
CC(=O)C1CC[C@H]2C3CC[C@H]4C[C@H](O)CC[C@]4(C)C3CC[C@]12C (some centres undefined)	1.02 (inactive)
NC(N)=NCCN1CCCCCCC1	1.04 (inactive)
Clc1ccc(CSC(Cn2ccnc2)c2ccc(Cl)cc2Cl)cc1 (centres undefined)	0.0571 (active)
O=c1cccc2n1CC1CC2CN2CCCC[C@@H]12 (some centres undefined)	1.02 (inactive)
Fc1ccc([C@@H]2CCNC[C@H]2COc2ccc3c(c2)OCO3)cc1	0.991 (inactive)
CCCCC(=O)O[C@]1(C(=O)CO)CCC2C3CCC4=CC(=O)CC[C@]4(C)C3[C@@H](O)C[C@@]21C (some centres undefined)	0.973 (inactive)
O=C(O)CCCCCCCC(=O)O	1 (inactive)
Cc1cccc(C)c1NC(=O)C1CCCCN1C (centres undefined)	0.987 (inactive)
C=CCS(=O)C[C@H](N)C(=O)O (some centres undefined)	0.992 (inactive)
Clc1ccc(C(Cn2ccnc2)OCc2ccsc2Cl)c(Cl)c1 (centres undefined)	0.0591 (active)
CC(=O)N[C@@H](CC(=O)O)C(=O)N[C@@H](CCC(=O)O)C(=O)O (Ac-Asp-Glu-OH)	1.01 (inactive)
Clc1ccc(COC(Cn2ccnc2)c2ccc(Cl)cc2Cl)cc1 (centres undefined)	0.0559 (active)

----------
Assay: chemical genetic growth profiling, strain panel (AID 1159580);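 note: tested at 20 µM; growth read once vehicle control cultures reached saturation at 30 °C; 1 = growth at the plate median or of vehicle wells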
Conditions: S. cerevisiae deletion strains, growth OD, locus YOL136C, strain PFK27, stronger effect = lower value
In all, about 5,500 compounds went through this assay and about 2,000 (36%) were called active. About 18% were inconclusive and are not listed. This is one part of the list.
Lab note: cut-off is 0.9. Strictly less in normalized growth is Condition met. Exactly 0.9 or more is Condition not met.

>>> df
                            compound_string        label_value
0           Clc1ccc(Oc2ccnc3cc(Cl)ccc23)cc1      Condition met
1  C/C(=N/NC(=S)NCC(C)(C)C)c1cc(F)cc(Cl)c1O  Condition not met
2  O=C(Nc1cc(Cl)ccc1O)c1ccccc1CSc1ccc(Cl)cc1      Condition met

----------
The following compounds are listed with their measured normalized growth values.
Assay: chemical genetic growth profiling, strain panel (AID 1159580);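 note: tested at 20 µM; growth read once vehicle control cultures reached saturation at 30 °C; 1 = growth at the plate median or of vehicle wells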
Conditions: S. cerevisiae deletion strains, growth OD, locus YJR043C, strain POL32, stronger effect = lower value
Among all 5,500 compounds or so, about 2,000 (36%) were called active. Not shown: some 18% with an inconclusive outcome. Some of the results follow.
ENDPOINT: normalized growth

>>> print(df.to_string())
                                    compound  readout_value
 0          Cc1oncc1C(=O)Nc1ccc(C(F)(F)F)cc1           1.05
 1  OC[C@H]1O[C@@H](n2cnc3c(NCc4ccco4)ncnc32)[C@H](O)[C@@H]1O           1.01
 2  c1ccc(-c2ccc(-c3csc(-c4cccnc4)n3)cc2)cc1          0.975
 3  CC(=O)C1CC[C@H]2C3CC[C@H]4C[C@H](O)CC[C@]4(C)C3CC[C@]12C (stereo not given in full)           1.05
 4  C=C[C@@]1(C)CC(=O)[C@@]2(O)[C@](C)(O1)[C@@H](OC(C)=O)[C@@H](O)C1C(C)(C)CC[C@H](O)[C@@]12C (stereo not given in full)           1.01
 5  CN(C)CCC(c1ccccc1)c1ccccn1 (stereo not given)          0.997
 6           CCCNC(=O)NS(=O)(=O)c1ccc(Cl)cc1              1
 7   NC(=O)NC1NC(=O)NC1=O (stereo not given)          0.979
 8  C[C@]12CCC3C(CC[C@H]4C[C@@H](O)CC[C@]34C)C1CC[C@@H]2O (stereo not given in full)          0.965
 9            CCOC(=O)c1cnn(-c2ccc(F)cc2)c1N          0.994
10                COc1ccc2oc3ccccc3c(=O)c2c1          0.932
11          Nc1ccc(Oc2ccc(Cl)cc2C2CCCCC2)nc1          0.852
12       COc1ccc2oc(-c3ccccc3)c(OC)c(=O)c2c1          0.863
13     NNC(=O)c1cnn(-c2ccc(Cl)cc2)c1C(F)(F)F          0.946
14                 Cc1cc(Cl)ccc1Oc1ccc(N)cn1          0.977

----------
Assay: chemical genetic growth profiling, strain panel (AID 1159580);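 note: tested at 20 µM; growth read once vehicle control cultures reached saturation at 30 °C; 1 = growth at the plate median or of vehicle wells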
Conditions: S. cerevisiae deletion strains, growth OD, locus YNL298W, strain CLA4 (second series)
Out of some 5,500 compounds screened, about 2,000 (36%) were called active. Inconclusive results (about 18%) are left out. Cut-off read from the data, not from the text of the source: active = normalized growth mostly below about 0.91 (no sharp cut-off); inconclusive = no clear call, values can overlap the other calls; inactive = mostly above about 0.92. This is one part of the list.
Outcomes: t for active, f for inactive

                                    molecule  label_value
 0  COc1ccc(-c2nc(-c3ccc(-c4ccccc4)cc3)cs2)cc1            f
 1  CN(C)c1ccc(-c2n[nH]c(=O)c3ccccc23)cc1[N+](=O)[O-]            f
 2                  Brc1cccc(C=NCc2ccccc2)c1            t
 3  CC(=O)NC(CCC(=O)O)C(=O)O (stereo unspecified)            f
 4             Cc1cc2c3c(c1)c(O)cc(=O)n3CCC2            f
 5  Cc1onc2c(=O)n(-c3ccccc3)nc(-c3ccccc3)c12            f
 6                    OCc1nccn1Cc1ccc(Cl)cc1            f
 7     NNC(=O)c1cnn(-c2ccc(Cl)cc2)c1C(F)(F)F            f
 8  NC(=O)N[C@@H]1O[C@H](CO)[C@@H](O)[C@H](O)[C@H]1O            f
 9                 Nc1ncnc(SCc2ccc(Cl)cc2)n1            f
10      O=C1NC2(CCN(Cc3ccccc3)CC2)Oc2ccccc21            f
11        CC(C)(C)NC(=S)NC1CCN(Cc2ccccc2)CC1            f
12  O=C1C2C3C=CC(C3)C2C(=O)N1c1ccc(F)c(F)c1 (stereo unspecified)            f
13               COC(=O)c1cscc1Sc1ccc(Cl)cc1            f
14                           COC(=O)c1ccsc1N            f
15  O=C1c2ccccc2C2(c3ccccc3)NCCN12 (stereo unspecified)            f
